TARGET OR TEST SYSTEM: Avi-KRAS WT (1-169) GppNHp/RAF1 RBD-3xFLAG (52-151) (Homo sapiens)
Construct: Avi-KRAS WT (1-169)
Sequence (P01116 1-169 isoform P01116-2): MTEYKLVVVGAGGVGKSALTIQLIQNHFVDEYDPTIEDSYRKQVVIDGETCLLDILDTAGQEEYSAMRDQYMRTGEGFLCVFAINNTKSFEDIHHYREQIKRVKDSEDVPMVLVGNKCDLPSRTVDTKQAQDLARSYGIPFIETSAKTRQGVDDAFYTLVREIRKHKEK
PROTOCOL NOTES: Raf1-KRAS WT-GppNHP disruption HTRF assay (Biological Example 1)
Type: binding
MEASUREMENT PARAMETERS: KRAS WT, GppNHp-loaded; Table 11
pIC50: −log10 of the molar value.
OBSERVED PROPERTY: pIC50

Recorded pIC50, per entry:
CO[C@@H]1C[C@@H](COc2nc(N(C)[C@H]3CCN(C(C)=O)[C@H]3C)c3cc(C(F)(F)F)c(-c4ccc(F)c5sc(N)c(C#N)c45)c(F)c3n2)N(C)C1 [Compound 238]    < 5.00
C[C@H](O)C1CCN(c2nc(OC[C@@]34CCCN3C[C@H](F)C4)nc3c(F)c(-c4ccc(F)c5sc(N)c(C#N)c45)c(C(F)(F)F)cc23)CC1 [Compound 50]    6.00 to 7.00
N#CC[C@H]1CN(c2nc(OC[C@@]34CCCN3C[C@H](F)C4)nc3c(F)c(-c4ccc(F)c5sc(N)c(C#N)c45)c(C(F)(F)F)cc23)CCO1 [Compound 137]    6.00 to 7.00
CN(c1nc(OC[C@@]23CCCN2C[C@H](F)C3)nc2c(C#N)c(-c3ccc(F)c4sc(N)c(C#N)c34)c(Cl)cc12)[C@H]1C[C@@H](O)C1 [Compound 30]    6.00 to 7.00
CN(c1nc(OC[C@@]23CCCN2C[C@H](F)C3)nc2c(F)c(-c3ccc(F)c4sc(N)c(C#N)c34)c(C#N)cc12)[C@H]1C[C@@H](O)C1 [Compound 32]    6.00 to 7.00

Consider now this further compound.
stdin: For Avi-KRAS WT (1-169) GppNHp/RAF1 RBD-3xFLAG (52-151) (Homo sapiens), give the measured pIC50 of the entry CN(c1nc(OC[C@@]23CCCN2C[C@H](F)C3)nc2cc(-c3ccc(F)c4sc(N)c(C#N)c34)c(C#N)cc12)[C@H]1C[C@@H](O)C1 [Compound 29]
stdout: 5.00 to 6.00
